Assay: splicing luciferase reporter signal modulators, primary screen, spliceosome inhibition project, cell-based, HEK293, splice +/- reporter (AID 1101);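 also: HEK293 cells carrying a splicing-competent luciferase reporter gene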
Conditions: luminescence, 24 h, higher = more signal, called active from +8 up or from −8 down
The source made the active and inactive calls.
Readings of z-score for the listed molecules

Illustrative cases are given below, each with its answer.
{"columns": ["molecule", "z-score"],
 "data": [
  ["COC(=O)[C@@]1(Cc2ccc(OC)cc2)[C@@H]2[C@@H](CC(=O)[C@H]2CC(=O)C(=O)N2CCCC2)CN1C(=O)c1ccccc1", "-2.69 (inactive)"],
  ["COc1ccc(C(O)C2C=CC3C(=O)N(C)C(=O)C3N2Nc2ccc([N+](=O)[O-])cc2[N+](=O)[O-])cc1OCc1ccccc1 (stereo not drawn)", "1.16 (inactive)"]
]}

Q. Requested read-out: z-score. Entry: COC(=O)[C@H](Cc1ccc(O)cc1)N1CC2=CCCC=C[C@@H]2[C@H]1[C@H](O)Cc1ccccc1
A. -1.07 (inactive)

Q. What does the data say about its z-score? Entry: [N-]=[N+]=NCc1ccccc1C[C@]1(C(=O)O)COC(c2ccc(OCCCO)cc2)=N1
A. 0.544 (inactive)

###

Biological target: NADPH oxidase 5 (Homo sapiens) (UniProt Q96PH1)
Sequence (Q96PH1 whole entry, looked up): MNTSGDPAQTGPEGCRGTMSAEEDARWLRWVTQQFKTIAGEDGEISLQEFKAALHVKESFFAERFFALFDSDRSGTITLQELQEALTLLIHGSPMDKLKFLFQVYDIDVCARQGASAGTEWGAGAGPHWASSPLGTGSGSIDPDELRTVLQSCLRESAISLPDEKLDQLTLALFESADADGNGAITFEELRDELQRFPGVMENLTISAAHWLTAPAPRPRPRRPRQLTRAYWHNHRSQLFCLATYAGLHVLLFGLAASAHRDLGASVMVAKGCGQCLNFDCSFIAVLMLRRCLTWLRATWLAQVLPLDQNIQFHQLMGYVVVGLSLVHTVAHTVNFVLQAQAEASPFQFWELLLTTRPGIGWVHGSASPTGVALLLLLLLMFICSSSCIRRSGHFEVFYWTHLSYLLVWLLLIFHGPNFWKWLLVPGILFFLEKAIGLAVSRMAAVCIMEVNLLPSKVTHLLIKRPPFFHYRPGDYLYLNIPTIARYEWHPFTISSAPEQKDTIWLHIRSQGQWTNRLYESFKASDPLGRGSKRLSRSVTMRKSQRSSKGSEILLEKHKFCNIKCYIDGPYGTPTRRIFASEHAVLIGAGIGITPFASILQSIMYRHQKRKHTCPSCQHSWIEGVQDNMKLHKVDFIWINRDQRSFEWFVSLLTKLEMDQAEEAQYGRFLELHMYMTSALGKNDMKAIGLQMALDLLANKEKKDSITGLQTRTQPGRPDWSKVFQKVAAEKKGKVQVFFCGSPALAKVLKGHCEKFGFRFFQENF
Experiment: NOX5-dependent H2O2 signal modulators, primary screen, NOX inhibitor project, cell-based, HEK293-NOX5, Amplex Red fluorescence (AID 1161)
Settings: HEK293-NOX5, ionomycin, 45 min, higher = more signal
Here the recorded z-score is given for each entry.
// return a plain number; no unit text

Please review the following examples before continuing.
{"columns": ["compound", "recorded.measurement"],
 "data": [
  ["C=CCC(OC(C)=O)[C@@H]1[C@@H](N(Cc2ccc(-c3ccccc3)cc2)C(=O)c2ccc(-c3ccccc3)cc2)c2cc(OCCCO)ccc2N1C(=O)c1ccc2ccccc2n1 (stereo partly drawn)", 1.17],
  ["C=CC[C@@]1(C(=O)N(C)C)N=C(c2ccc(OCCCO)cc2)O[C@@H]1c1ccccc1", -0.651]
]}

--- query ---
Q. For NADPH oxidase 5 (Homo sapiens) (UniProt Q96PH1), provide z-score of COc1ccc([Si](C)(C)[C@H]2[C@H](CC(=O)N3Cc4ccccc4C[C@H]3CO)O[C@@]3(C(=O)N(Cc4cccc(N5C(=O)c6cccc7cccc5c67)c4)c4ccccc43)[C@@H]2C)cc1 please.
A. -0.799

###

Test system: XIP peptide (Xip251-270)
Experiment: small-molecule binders of XIP peptide, primary screen, biochemical, small-molecule microarray, fluorescence 635/667 nm, 0.5 µg/mL protein (AID 1183)
Conditions: small-molecule microarray binding, fluorescence 635 nm; higher = more signal
Classification by composite z-score follows these ranges: low band: < 0.2; middle band: ≥ 0.2 and < 0.7; high band: ≥ 0.7

{"columns": ["compound", "measurement.target", "qualitative.label"],
 "data": [
  ["Cc1ccccc1C(O)C1C=CC2C(=O)N(c3ccccc3)C(=O)C2N1Nc1ccccc1F (stereo not drawn)", "XIP peptide (Xip251-270)", "middle band"],
  ["C=CCOC(=O)[C@@H]1[C@H]2C(=O)O[C@H](c3ccccc3)[C@H](c3ccccc3)N2[C@H](c2ccc(OCCOC(=O)[C@H]3C[C@H]4C(=O)NCC(=O)N4[C@H]3c3ccc(O)cc3)cc2)[C@@]12C(=O)Nc1ccc(I)cc12", "XIP peptide (Xip251-270)", "high band"],
  ["CC(=O)c1ccc(C(O)C2C=CC3C(=O)NC(=O)C3N2Nc2ccc(Cl)cc2Cl)cc1 (stereo not drawn)", "XIP peptide (Xip251-270)", "low band"],
  ["O=C(NCC(F)(F)F)[C@@H]1c2ccccc2C(=O)N(CC23CC4CC(CC(C4)C2)C3)[C@H]1c1ccc(CO)cc1", "XIP peptide (Xip251-270)", "middle band"],
  ["CN1C(=O)[C@]2(CCC(=O)OC(C)(C)C)N=C(c3ccc(OCCCO)cc3)O[C@@H]2c2ccccc21", "XIP peptide (Xip251-270)", "middle band"],
  ["COc1cc2c(cc1O)C(c1ccc(CN3CCCC3)cc1)N(Cc1ccc([N+](=O)[O-])o1)CC2 (stereo not drawn)", "XIP peptide (Xip251-270)", "low band"],
  ["CCCC=C(CCC)[C@@H](NS(=O)(=O)c1ccc(Cl)cc1)c1ccccc1", "XIP peptide (Xip251-270)", "middle band"],
  ["CCc1cccc(NC(=O)O[C@H]2[C@H](OC(=O)Nc3ccc4c(c3)OCO4)[C@H](OC(=O)Nc3ccc4c(c3)OCO4)[C@@H](OC)O[C@@H]2CO)c1", "XIP peptide (Xip251-270)", "high band"]
]}

Q. Returns: class label. Input: C=CCC(OC(C)=O)[C@@H]1[C@@H](N(Cc2ccc(-c3cccc(C(F)(F)F)c3)o2)C(=O)c2cccc3ccccc23)c2cc(OCCCO)ccc2N1C(=O)c1ccc2ccccc2n1 (stereo partly drawn)
A. low band

Q. Form: Item = CC(C)C(=C=CC[C@@H](O)c1ccc(OCCO)cc1)CCO ; Class = ?
A. middle band

Q. Kindly identify the class of COC(=O)[C@@]1(CCC(=O)OC(C)(C)C)N=C(c2ccc(OCCCO)cc2)O[C@H]1c1ccccc1CN=[N+]=[N-] .
A. middle band

Q. Tag the class for CC(C)C[C@H]1NC(=O)[C@@]23C(=O)N[C@@H](Cc4ccccc4)C2[C@H](C)[C@@]2(C)O[C@H]2C3/C=C/C/C=C\CNC(=O)[C@@H]2CCCN2C1=O (stereo partly drawn)
A. low band

Q. Hey, which category is COc1cc2c(cc1O)C(c1ccc(CN3CCCC3)cc1)N(Cc1cccc(OC(F)(F)F)c1)CC2 (stereo not drawn) in, do you know?
A. low band

Q. Bin this entry: CC(C)(C)OC(=O)CC[C@]1(C(=O)N2CCOCC2)N=C(c2ccc(OCCCO)cc2)O[C@H]1c1ccccc1CN=[N+]=[N-]
A. high band

Q. Entry COc1ccc([Si](C)(C)[C@@H]2[C@@H](CCO)O[C@]3(C(=O)N(Cc4ccccc4)c4ccc(N5C(=O)c6ccccc6Oc6ccccc65)cc43)[C@H]2C)cc1 belongs to which category?
A. middle band

Q. Into which bin does this compound go? O=C1N(Cc2ccccc2)c2ccccc2[C@H]2OC(c3ccc(OCCCO)cc3)=N[C@@]12Cc1ccccc1
A. high band

Q. Form: Item = C=CCC(OC(C)=O)[C@@H]1[C@@H](N(Cc2cc3ccccc3o2)C(=O)Cc2ccc(OC)cc2)c2cc(OCCCO)ccc2N1C(=O)Cc1ccc2ccccc2c1 (stereo partly drawn) ; Class = ?
A. low band

Q. Could you place CC(C)(C)OC(=O)CC[C@]1(C(N)=O)N=C(c2ccc(OCCCO)cc2)O[C@H]1c1ccccc1CN=[N+]=[N-] in its proper category? Many thanks.
A. high band

Q. Form field 'band' for COc1cc2c(cc1O)C(C1CC1)N(Cc1ccc([N+](=O)[O-])o1)CC2 (stereo not drawn)
A. middle band

Q. Please classify: O=C1c2ccccc2[C@@]2(Cc3ccccc3N(Cc3ccccc3)C2=O)[C@H](c2ccc(CO)cc2)N1Cc1ccccc1
A. low band

Q. Consider CCCC[C@H]1OB(O)C[C@H]2C1=C(C)C[C@H]1C(=O)C=CC(=O)[C@H]12 . To which composite z-score class does it belong?
A. middle band

###

Experiment: modulators of S6 phosphorylation in cells, primary screen, cell-based, A549, cytoblot, luminescence, serum-stimulated (AID 1158);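 also: serum-stimulated A549 lung adenocarcinoma cells; signal is phosphorylated S6 detected by cytoblot immunostaining with HRP secondary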
Settings: A549 phospho-S6 cytoblot, 5 h, higher = more signal
Below, each of the compounds is paired with its reported z-score value.

Here are 3 compounds together with their reported answers.
{"columns": ["smiles.record", "z-score"],
 "data": [
  ["CC1(C)OC[C@@]23C=C(Br)[C@@H](C[C@H]12)[C@@]1(CO1)C3=O", -0.552],
  ["CC(=O)NCCCC[C@@H]1NC(=O)[C@@H]2C[C@H](C(=O)NCCCCCC[N+](C)(C)C)[C@H](c3ccc(O)cc3)N2C1=O", -0.879],
  ["COCC(=C=CC[C@@H](O)c1cccc(OCCO)c1)C[C@@H](O)COCc1ccccc1", 1.31]
]}

Q. For the compound C[C@]1(C(=O)NCC(F)(F)F)c2ccccc2C(=O)N(Cc2ccc(OC(F)(F)F)cc2)[C@H]1c1ccc(CO)cc1 , what z-score is on record?
A. -0.32

###

Assay: E. coli growth modulation, two-sided OD650, primary screen, E. coli filamentation project, strain DRC41, 24 h (AID 1093);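 also: MC1000 strain lacking acrAB efflux and sulA so SOS filamentation is blocked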
Settings: OD650, 24 h, higher = more signal, called active from +8 up or from −8 down
recorded.metric: z-score
Please give the numeric answer without any surrounding text.

Worked cases, z-score given:
{"columns": ["compound", "z-score"],
 "data": [
  ["CN1C(=O)C2C(C1=O)C1C=C(c3ccc(CO)cc3)C2C(c2cccs2)N1C (centres undefined)", 1.24],
  ["CCCC[C@H]1OB(O)C[C@H]2C1=C(COC)C[C@H]1C(=O)C=CC(=O)[C@H]12", 0.898],
  ["CC(=O)c1ccc(C(O)C2C=CC3C(=O)N(C)C(=O)C3N2NC(=O)OC(C)(C)C)cc1 (centres undefined)", -1.24]
]}

Q. Value lookup for z-score; key = COCCOC(=O)N1C(=O)[C@@]2(c3ccccc31)[C@H](c1ccc(OCCO)cc1)N1[C@H](c3ccccc3)[C@H](c3ccccc3)OC(=O)[C@H]1[C@@H]2C(=O)N1CCN(c2ncccn2)CC1
A. 0.374
